Numbers sourced from the supplement of paper PMC10567573.

B1: PLAGL1 (parent)
chain: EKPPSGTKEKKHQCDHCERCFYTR

Variants of: B1
Experiment: protein stability index of a GFP-peptide fusion (GPS, HEK-293T) (PSI 1-6); higher = more stable;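 note: lentivirally expressed fusions sorted by FACS into six bins by GFP to DsRed ratio, PSI derived from sequencing read proportions per bin multiplied by bin number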
Conditions: c terminus: a fixed tail appended
In this section we review reported protein stability index values for a set of variants.
// print number alone

Please review the following examples before continuing.
Req: Quick one: protein stability index of S5Q ?
Resp: 3.42

Req: Quick one: protein stability index of H16Y ?
Resp: 2.59

Req: Quick one: protein stability index of P4V ?
Resp: 3.19

Req: Quick one: protein stability index of P3S ?
Resp: 3.78

Then this variant:
Req: Quick one: protein stability index of E1S ?
Resp: 3.11
